Answer each item with its documented T½.
Target: T1, human BCMA (human, UniProt Q02223 1-54)
T1 construct: also called huBCMA; hBCMA
T1 sequence: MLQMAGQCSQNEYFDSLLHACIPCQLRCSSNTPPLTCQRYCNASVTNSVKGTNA
Experiment: SPR, immobilised IgG, 37° C
Give bare numbers, in min.

// each binder listed below needs its T½
1. L3.PY/L1.PS/H3.AQ (antibody, V domains shown, IgG in the assay) VH: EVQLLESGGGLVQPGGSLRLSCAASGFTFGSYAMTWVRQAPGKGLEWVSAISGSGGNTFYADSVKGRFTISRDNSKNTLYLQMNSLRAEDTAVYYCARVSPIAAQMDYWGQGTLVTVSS VL: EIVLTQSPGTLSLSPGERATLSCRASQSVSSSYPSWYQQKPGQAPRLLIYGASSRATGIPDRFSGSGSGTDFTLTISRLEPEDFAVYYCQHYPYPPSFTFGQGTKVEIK
2. L3.PY/L1.FF/H2.HA (antibody, V domains shown, IgG in the assay) VH: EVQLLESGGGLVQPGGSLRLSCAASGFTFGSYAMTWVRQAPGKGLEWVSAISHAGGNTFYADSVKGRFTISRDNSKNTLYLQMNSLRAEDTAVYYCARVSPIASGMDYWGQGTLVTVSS VL: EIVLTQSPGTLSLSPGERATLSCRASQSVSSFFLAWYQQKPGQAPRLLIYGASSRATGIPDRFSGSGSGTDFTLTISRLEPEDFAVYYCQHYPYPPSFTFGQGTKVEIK
3. L3.PY/L1.AH/H2.YQ (antibody, V domains shown, IgG in the assay) VH: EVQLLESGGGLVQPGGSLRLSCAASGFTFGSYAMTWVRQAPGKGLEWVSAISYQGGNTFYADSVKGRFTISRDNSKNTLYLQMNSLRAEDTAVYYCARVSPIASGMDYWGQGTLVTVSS VL: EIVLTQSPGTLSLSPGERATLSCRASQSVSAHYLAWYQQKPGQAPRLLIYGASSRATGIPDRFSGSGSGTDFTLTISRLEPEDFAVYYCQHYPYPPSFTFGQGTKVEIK

-- reply
1: 6.46; 2: 5.29; 3: 6
